# target.or.system: T1, L-selectin (LS-Rg) (Homo sapiens, UniProt P14151 P14151:39-332)
# T1 chain: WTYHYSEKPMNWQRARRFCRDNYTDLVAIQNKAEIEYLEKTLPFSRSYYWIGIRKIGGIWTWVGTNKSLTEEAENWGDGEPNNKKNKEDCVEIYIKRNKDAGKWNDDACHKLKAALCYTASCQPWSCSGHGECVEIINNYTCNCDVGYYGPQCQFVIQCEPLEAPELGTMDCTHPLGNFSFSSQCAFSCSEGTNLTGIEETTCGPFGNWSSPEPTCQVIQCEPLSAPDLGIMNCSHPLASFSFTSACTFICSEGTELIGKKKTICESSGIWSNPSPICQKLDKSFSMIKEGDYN
# assay.notes: filter; room temp; 590 pM at 37 C
# condition.summary: tags: human IgG2 Fc fusion (provided by A. Varki); label: 32P; hairpin
value.type: Kd (nM)
Response body: numeric value in nM, unit text excluded.

Prompt: Bench note: what Kd did 179 (ssDNA) DNA: CTACCTACGATCTGACTAGCCACATGCCTGACGCGGTACAAGGCCTGGACGTAACGTTGGCTTACTCTCATGTAGTTCC show?
Response: 0.18
